- TARGET OR TEST SYSTEM: IN-GCN2 interaction (6xHis-IN / GST-GCN2) (UniProt P04585+Q9P2K8)
- Sequence (Q9P2K8 192-1024, other chains not shown): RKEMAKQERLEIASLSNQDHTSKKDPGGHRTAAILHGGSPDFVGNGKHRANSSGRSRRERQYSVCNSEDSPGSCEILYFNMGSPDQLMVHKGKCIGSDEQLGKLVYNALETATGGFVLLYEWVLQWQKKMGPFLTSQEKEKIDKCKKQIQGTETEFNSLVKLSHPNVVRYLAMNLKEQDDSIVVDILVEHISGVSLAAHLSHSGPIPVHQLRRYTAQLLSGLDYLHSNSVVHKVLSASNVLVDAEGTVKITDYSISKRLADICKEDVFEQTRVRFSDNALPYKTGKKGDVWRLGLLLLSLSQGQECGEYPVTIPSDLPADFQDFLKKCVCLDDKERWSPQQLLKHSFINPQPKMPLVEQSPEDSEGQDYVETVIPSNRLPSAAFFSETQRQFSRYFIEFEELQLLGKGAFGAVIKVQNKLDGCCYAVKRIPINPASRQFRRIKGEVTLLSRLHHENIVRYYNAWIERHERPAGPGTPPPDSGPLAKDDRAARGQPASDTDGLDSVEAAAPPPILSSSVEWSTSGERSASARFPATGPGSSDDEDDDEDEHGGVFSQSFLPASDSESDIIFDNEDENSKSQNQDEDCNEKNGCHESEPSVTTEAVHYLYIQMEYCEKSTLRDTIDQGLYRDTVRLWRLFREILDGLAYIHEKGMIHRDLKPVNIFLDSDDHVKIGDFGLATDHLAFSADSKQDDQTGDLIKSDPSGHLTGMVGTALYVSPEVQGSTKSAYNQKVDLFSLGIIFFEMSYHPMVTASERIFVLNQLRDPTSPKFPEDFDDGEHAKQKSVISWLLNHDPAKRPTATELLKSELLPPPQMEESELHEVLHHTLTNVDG
- TEST DESCRIPTION: biochemical
- Assay type: binding, HIV-1 IN; human GCN2
- CONDITION CONTEXT: IC50, inhibition of IN-GCN2 interaction, SAR study, fresh dilutions from powder; at least three independent experiments
pIC50: −log10 of the molar value.
Quick rule for you: pIC50 at 5 or higher means Yes, lower means No.

Completed entries (count: 5):
{"MOLECULE": "COc1ccc2c(c1)CC1c3c(cc4c(c3-2)OCO4)CCN1C (stereo not shown)", "CATEGORY LABEL": "No"}
{"MOLECULE": "CCC1(O)CC(OC2CC(N(C)C)C(O)C(C)O2)c2c(cc3c(c2O)C(=O)c2c(O)ccc(O)c2C3=O)C1C(=O)OC (stereo not shown)", "CATEGORY LABEL": "Yes"}
{"MOLECULE": "CCC1(O)CC(OC2CC(N(C)C)C(O)C(C)O2)c2c(cc3c(c2O)C(=O)c2c(O)cccc2C3=O)C1C(=O)OC (stereo not shown)", "CATEGORY LABEL": "Yes"}
{"MOLECULE": "O=C1CC(c2ccc(O)c(-c3c(O)cc4c(c3O)C(=O)CC(c3ccc(O)cc3)O4)c2)Oc2cc(O)cc(O)c21 (stereo not shown)", "CATEGORY LABEL": "No"}
{"MOLECULE": "COc1cc2c(cc1OC)-c1c3c(cc4c1[C@H](C2)N(C)CC4)OCO3", "CATEGORY LABEL": "No"}

q: Hi, just wondering whether CCOC(=O)N1CCc2cc(OC)c(OC)c3c2c1cc1cc(OC)c(OC)cc13 shows pIC50 of 5 or higher.
a: No

---

- TARGET OR TEST SYSTEM: IN-GCN2 interaction (6xHis-IN / GST-GCN2) (UniProt P04585+Q9P2K8)
- TEST DESCRIPTION: biochemical
- Type: binding, HIV-1 IN; human GCN2
- CONDITION CONTEXT: screen, single dose 100 µM, single replicate; residual AlphaLISA signal normalized to DMSO control
REPORTED METRIC: IN-GCN2 interaction (%)
Please respond with the number in % and leave the unit unwritten.

Sample records with IN-GCN2 interaction (%):
{"MOLECULE": "COc1cc(O)c(C(=O)/C=C/c2ccccc2)c(OC)c1 [NSC51351]", "MEASURED": 51.53}
{"MOLECULE": "O=c1oc2cc(O)ccc2c2oc3cc(O)ccc3c12 [NSC22842]", "MEASURED": 123.61}
{"MOLECULE": "COc1ccc2c(c1O)-c1c3c(cc4c1[C@H](C2)N(C)CC4)OCO3 [NSC785188]", "MEASURED": 77.54}
{"MOLECULE": "COC(=O)[C@@H]1[C@H](O)[C@H](C)[C@H](O)[C@H](C)/C=C\\C=C(/C)C(=O)Nc2c(C)c(OC(C)=O)c3c(c2O)C(=O)C(C)=C2OCOC(=C23)/C(C)=C/[C@@](C)(O)[C@H](O)[C@@H](C)[C@H]1O [NSC19990]", "MEASURED": 69.46}
{"MOLECULE": "CC(=O)OC(C)C1C2=C(C(=O)CC1(C)O)C(=O)c1c(ccc(-c3ccc4c(c3O)C(=O)C3=C(C4=O)C(C(C)OC(C)=O)C(C)(O)CC3=O)c1O)C2=O (stereo not shown) [NSC248605, Julimycin B2]", "MEASURED": 6.97}
{"MOLECULE": "COc1cc2c(c(OC)c1OC)-c1ccc(OC)c(=O)cc1[C@@H](NC(C)=O)CC2 [NSC757]", "MEASURED": 116.47}
{"MOLECULE": "O=C1c2ccccc2C(=O)c2c1cc(O)c(O)c2O [NSC31754]", "MEASURED": 87.55}
{"MOLECULE": "CCC1(O)CC(OC2CC(N(C)C)C(O)C(C)O2)c2c(cc3c(c2O)C(=O)c2c(O)cccc2C3=O)C1C(=O)OC (stereo not shown) [Compound 1f]", "MEASURED": 43.80}

q: Could you tell me which IN-GCN2 interaction (%) is on file for CO[C@H]1/C=C/O[C@@]2(C)Oc3c(C)c(O)c4c(O)c(cc(O)c4c3C2=O)NC(=O)/C(C)=C\C=C\[C@H](C)[C@H](O)[C@@H](C)[C@@H](O)[C@@H](C)[C@H](OC(C)=O)[C@@H]1C [NSC133100] ?
a: 111.79

q: Could you tell me which IN-GCN2 interaction (%) is on file for COc1ccc(C[C@@H]2NC[C@@H](O)[C@@H]2OC(C)=O)cc1.Cl [NSC147340] ?
a: 88.95

q: Could you tell me which IN-GCN2 interaction (%) is on file for O=P(O)(O)OC1OC(CO)C(O)C(O)C1O (stereo not shown) [NSC44138] ?
a: 105.48

q: Could you tell me which IN-GCN2 interaction (%) is on file for COc1cccc2c1C1COC3C4CC(C(=O)O)C(C(C2)N13)N4C.O=C(O)CC(O)(CC(=O)O)C(=O)O (stereo not shown) [NSC601422] ?
a: 152.09

q: Could you tell me which IN-GCN2 interaction (%) is on file for COc1cc2cc(c1Cl)N(C)C(=O)C[C@H](OC(=O)C(C)C)[C@]1(C)O[C@H]1[C@H](C)[C@@H]1C[C@@](O)(NC(=O)O1)[C@H](OC)/C=C/C=C(\C)C2 [NSC292222] ?
a: 93.28

q: Could you tell me which IN-GCN2 interaction (%) is on file for COC(=O)C1=CO[C@@H](C)[C@@H]2CN3CCc4c([nH]c5cc(OC)ccc45)[C@@H]3C[C@H]12 [NSC15624] ?
a: 43.70

q: Could you tell me which IN-GCN2 interaction (%) is on file for Oc1ccc(Cc2nccc3cc(O)c(O)cc23)cc1O [NSC99799] ?
a: 58.53

q: Could you tell me which IN-GCN2 interaction (%) is on file for COc1c(OC)c2c3c(nccc3c1OC)C(=O)c1cc(O)ccc1-2 [NSC785143] ?
a: 30.28
